Tested on: K562
Assay: Cytotoxicity against human K562 cells by MTT assay
Format: functional, cell-based
measured_endpoint: pIC50
The value called pIC50 is obtained by taking minus log10 of the concentration in mol/L.

Req: Quick one: pIC50 of COC(=O)Cc1cc(CC/C=C(\C)CC/C=C(\C)CCC=C(C)C)ccc1O ?
Resp: 4.82

meta.source: ChEMBL document CHEMBL4813930
